Molecular target: ER-α in MCF-7 cells (Homo sapiens)
Construct: endogenous in cells; host or cells: MCF-7
Test: Breast Cancer Cell ER-α In Cell Western Assay (SP1)
Format: cell-based
Conditions: MCF7, SP1 antibody, 4 or 24 hr post compound addition, read-out: ER-α In Cell Western Assay (SP1) Max Response
REPORTED_PROPERTY: Emax

{"COMPOUND": "O=C(/C=C/c1ccc(/C(=C(\\c2ccccc2)C2CCC2)c2ccc3[nH]nc(F)c3c2)cc1)NCC(O)CO (stereo not shown) [Example 188]", "TEST_TARGET": "ER-α in MCF-7 cells (Homo sapiens)", "Emax": "≥ 40%"}
{"COMPOUND": "COc1cccc2c(/C(=C(/c3ccncc3Cl)C3CCC3)c3ccc(/C=C/C(=O)O)cc3)coc12 [Example 78]", "TEST_TARGET": "ER-α in MCF-7 cells (Homo sapiens)", "Emax": "≥ 40%"}

Exam item: Recorded Emax for N#Cc1cc(F)ccc1/C(=C(\c1ccc(/C=C/C(=O)O)cc1)c1ccc2scnc2c1)C1CCC1 [Example 90] , please?
Marked response: ≥ 40%

Exam item: Recorded Emax for Cc1cnccc1/C(=C(\c1ccc(/C=C/c2nnn[nH]2)cc1)c1ccc2scnc2c1)C1CCC1 [Example 177] , please?
Marked response: ≥ 40%

Exam item: // returns reported Emax for input O=C(O)/C=C/c1ccc(/C(=C(\c2ccccc2)C2CCC2)c2ccc3[nH]ncc3c2F)cc1 [Example 25]
Marked response: ≥ 40%

Exam item: Can you share its Emax? I mean this compound: CC/C(=C(/c1ccc(/C=C/C(=O)O)cc1)c1ccc2[nH]ncc2c1)c1ccc(C#N)cc1F [Example 151]
Marked response: ≥ 40%

Exam item: Entry under review: COc1ccc(/C(=C(\c2ccc(/C=C/C(=O)O)nc2)c2ccc3[nH]nc(F)c3c2)C2CCC2)c(Cl)c1 [Example 270] . Reported Emax?
Marked response: ≥ 40%

---

Emax overview
Molecular target: ER-α in MCF-7 cells (Homo sapiens, UniProt P03372)
Construct: endogenous in cells; host or cells: MCF-7
Sequence (P03372 1-595): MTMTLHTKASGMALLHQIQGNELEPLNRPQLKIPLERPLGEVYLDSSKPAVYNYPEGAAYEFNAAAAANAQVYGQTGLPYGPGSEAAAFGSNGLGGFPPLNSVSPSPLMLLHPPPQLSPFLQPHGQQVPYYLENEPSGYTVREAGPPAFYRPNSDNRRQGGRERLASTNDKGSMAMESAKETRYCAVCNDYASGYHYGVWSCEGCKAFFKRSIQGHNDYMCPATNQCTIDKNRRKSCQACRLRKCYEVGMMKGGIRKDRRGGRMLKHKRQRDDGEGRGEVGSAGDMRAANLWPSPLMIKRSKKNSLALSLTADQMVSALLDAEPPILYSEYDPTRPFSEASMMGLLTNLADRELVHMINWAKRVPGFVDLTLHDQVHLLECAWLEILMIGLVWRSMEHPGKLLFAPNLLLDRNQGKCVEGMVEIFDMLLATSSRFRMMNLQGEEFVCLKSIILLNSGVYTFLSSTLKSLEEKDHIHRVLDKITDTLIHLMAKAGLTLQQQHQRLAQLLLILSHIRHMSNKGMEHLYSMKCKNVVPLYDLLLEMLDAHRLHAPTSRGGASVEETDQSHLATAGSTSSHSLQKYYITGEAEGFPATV
Experiment: Breast Cancer Cell ER-α In Cell Western Assay (SP1)
Assay type: cell-based
Conditions: MCF7, SP1 antibody, 4 or 24 hr post compound addition, read-out: ER-α In Cell Western Assay (SP1) Max Response

Please review the entries below; each comes with its answer.
{"SMILES_REPR": "CC/C(=C(/c1ccc(/C=C/C(=O)O)cc1)c1ccc2[nH]nc(F)c2c1)c1ccc(C#N)cc1C", "TEST_TARGET": "ER-α in MCF-7 cells (Homo sapiens, UniProt P03372)", "Emax": "≥ 40%"}
{"SMILES_REPR": "COc1ncc(/C(=C(\\c2ccc(/C=C/C(=O)O)cc2)c2ccc3[nH]nc(F)c3c2)C2CCC2)c(C(F)(F)F)n1", "TEST_TARGET": "ER-α in MCF-7 cells (Homo sapiens, UniProt P03372)", "Emax": "≥ 40%"}
{"SMILES_REPR": "CC/C(=C(/c1ccc(/C=C/C(=O)NC)cc1)c1ccc2scnc2c1)c1ccc(F)cc1Cl", "TEST_TARGET": "ER-α in MCF-7 cells (Homo sapiens, UniProt P03372)", "Emax": "≥ 40%"}

Attention now shifts to the item below.
Exam item: Requested read-out: Emax. Entry: "O=C(O)/C=C/c1ccc(/C(=C(\c2ncccc2C(F)(F)F)C2CCC2)c2ccc3[nH]nc(F)c3c2)cc1"
Marked response: ≥ 40%

FYI, the data here is from patent US9499538B2.
